System: poly dA-poly dT
Experiment: Thermal melting experiments
Type: binding
Settings: r = 0.3, pH 7.0, sodium cacodylate buffer I = 0.05 mol dm^−3; error ±0.5 °C
Text: The thermal stability of helices is usually affected by the non-covalent binding of small molecules to double-stranded nucleic acids. We determined the ΔTm value (the difference between the Tm value of free polynucleotide and a complex with a small molecule) for complexes of selected compounds with ctDNA and an alternating polynucleotide, poly(dAdT)2. […] Because of this, we determined ΔTm value with non-alternating AT-DNA, poly dA-poly dT as well.
Readout name: ΔTm Poly dA-poly dT (°C)
Dear colleague, please return just the value in °C, with no unit written.

Noted for Cl.O=[N+]([O-])c1ccc(-c2ccc(-c3nc4ccc(C5=NCCN5)cc4s3)o2)cc1 : its ΔTm Poly dA-poly dT reads 5.6

Noted for CC(C)NC(=N)c1ccc2nc(-c3ccc(-c4ccc([N+](=O)[O-])cc4)o3)sc2c1 : its ΔTm Poly dA-poly dT reads 5.5

Noted for Cl.Clc1ccc(-c2ccc(-c3nc4ccc(C5=NCCN5)cc4s3)o2)cc1 : its ΔTm Poly dA-poly dT reads 15.2

Noted for CC(C)NC(=N)c1ccc2nc(-c3ccc(-c4ccc(Cl)cc4)o3)sc2c1 : its ΔTm Poly dA-poly dT reads 4.3

====

Tested on: NCI-H358
Experiment: Cytotoxicity (viability) assay, 3D hanging drop cell culture
Conditions: read-out: Cytotoxicity Assay IC50 ± SD; NCI-H358 3D; NCI-H358, 3D hanging drop spheres, 72 h; n = 2
Method: MTS assay gives us information about the number of living cells, in this case, metabolically active cells, whereas the BrdU proliferation assay gives a measure of the cell population in active division phase. Both assays were performed in 2D and 3D assay formats. […] Cells were grown in 96-well Perfecta 3D hanging drop plates 5000 cell/well for 4 days until spheres were formed (and checked under the microscope). […] Plates were read using PE EnVision luminescence. […]
pIC50: −log10 of the molar value.
Readout name: pIC50

Noted for N#CC(=Cc1ccc(-c2ccc([N+](=O)[O-])cc2)o1)c1nc2cc([N+](=O)[O-])ccc2[nH]1 : its pIC50 reads < 4.00

Noted for N#CC(=Cc1ccc(-c2ccc(Cl)cc2)o1)c1nc2cc([N+](=O)[O-])ccc2[nH]1 : its pIC50 reads < 4.00

====

As shown below, each of these compounds has a reported IC50 value.
Test system: NCI-H358
Test: Cytotoxicity (viability) assay, 3D hanging drop cell culture
Conditions: Homo sapiens, NCI-H358, 72 h, read-out: Cytotoxicity Assay IC50 ± SD; NCI-H358 3D
Dear colleague, please return just the value in µM, with no unit written.

COc1cc2c(Nc3ccc(Br)cc3F)ncnc2cc1OCC1CCN(C)CC1 [Vandetanib, reference compound]
0.38
Cl.O=[N+]([O-])c1ccc(-c2ccc(-c3nc4ccc(C5=NCCN5)cc4s3)o2)cc1
1.73
COc1cccc2c1C(=O)c1c(O)c3c(c(O)c1C2=O)C[C@@](O)(C(=O)CO)C[C@@H]3O[C@H]1C[C@H](N)[C@H](O)[C@H](C)O1 [Doxorubicin, reference compound]
0.99

Lab note: next compound to report on.
Noted for CC(C)NC(=N)c1ccc2nc(-c3ccc(-c4ccc([N+](=O)[O-])cc4)o3)sc2c1 : its IC50 reads 14.8

====

System: S. aureus ATCC 29213
Experiment: Broth microdilution testing (CLSI)
Format: cell-based, Staphylococcus aureus
Details: Staphylococcus aureus, ATCC29213, broth microdilution, 16–24h at 37 °C; read-out: MIC S. aureus ATCC 29213
Readout name: MIC (µM)
Dear colleague, please return just the value in µM, with no unit written.

Assay S. aureus ATCC 29213, sample CC(C)NC(=N)c1ccc2nc(-c3ccc(-c4ccc(Cl)cc4)o3)sc2c1 , MIC read: 12.5

Assay S. aureus ATCC 29213, sample CC(C)NC(=N)c1ccc2nc(-c3ccc(-c4ccc([N+](=O)[O-])cc4)o3)sc2c1 , MIC read: 50

Assay S. aureus ATCC 29213, sample CC1(C)S[C@@H]2[C@H](NC(=O)[C@H](N)c3ccccc3)C(=O)N2[C@H]1C(=O)O [Ampicillin, reference compound] , MIC read: 2

====

Tested on: A549
Experiment: MTS cytotoxicity assay, 2D cell culture
Settings: Homo sapiens, A549, 72 h, read-out: Cytotoxicity Assay IC50 ± SD; A549 2D, 72 h, MTS; n = 2
pIC50: −log10 of the molar value.
Readout name: pIC50

Field: example entries. Status: answers known.
N#C/C(=C\c1ccc(-c2ccc([N+](=O)[O-])cc2)o1)c1nc2ccccc2s1
< 4.30
Cl.O=[N+]([O-])c1ccc(-c2ccc(-c3nc4ccc(C5=NCCN5)cc4s3)o2)cc1
5.67
N#C/C(=C\c1ccc(-c2ccc(Cl)cc2)o1)c1nc2ccccc2[nH]1
< 4.30
N#Cc1ccc2[nH]c(-c3ccc(-c4ccc([N+](=O)[O-])cc4)o3)nc2c1
< 4.30
Cl.Clc1ccc(-c2ccc(-c3nc4ccc(C5=NCCN5)cc4s3)o2)cc1
5.36

Noted for COc1cc2c(Nc3ccc(Br)cc3F)ncnc2cc1OCC1CCN(C)CC1 [Vandetanib, reference compound] : its pIC50 reads < 4.60

Noted for N#Cc1ccc2nc(-c3ccc(-c4ccc(Cl)cc4)o3)sc2c1 : its pIC50 reads < 4.30

Noted for N#Cc1ccc2[nH]c(-c3ccc(-c4ccc(Cl)cc4)o3)nc2c1 : its pIC50 reads < 4.30

====

As shown below, each of these compounds has a reported pIC50 value.
Tested on: HCC827
Test: BrdU proliferation assay, 3D hanging drop cell culture
Format: cell-based, human
Conditions: Homo sapiens, HCC827, 3D, BrdU, n = 2, read-out: Proliferation Assay IC50 ± SD
Procedure: MTS assay gives us information about the number of living cells, in this case, metabolically active cells, whereas the BrdU proliferation assay gives a measure of the cell population in active division phase. Both assays were performed in 2D and 3D assay formats. […] Cells were grown in 96-well Perfecta 3D hanging drop plates 5000 cell/well for 4 days until spheres were formed (and checked under the microscope). […] Plates were read using PE EnVision luminescence. […]
pIC50 (log units): -log10 of the concentration in mol/L.

Cl.O=[N+]([O-])c1ccc(-c2ccc(-c3nc4ccc(C5=NCCN5)cc4s3)o2)cc1
5.12
COc1cccc2c1C(=O)c1c(O)c3c(c(O)c1C2=O)C[C@@](O)(C(=O)CO)C[C@@H]3O[C@H]1C[C@H](N)[C@H](O)[C@H](C)O1 [Doxorubicin, reference compound]
5.72
CC(C)NC(=N)c1ccc2nc(-c3ccc(-c4ccc([N+](=O)[O-])cc4)o3)sc2c1
4.83

Lab note: next compound to report on.
Noted for Cl.Clc1ccc(-c2ccc(-c3nc4ccc(C5=NCCN5)cc4s3)o2)cc1 : its pIC50 reads 4.69

====

System: E. coli ATCC 25922
Assay: Broth microdilution testing (CLSI)
Assay type: cell-based, Escherichia coli
Conditions: Escherichia coli, ATCC25922; broth microdilution, 16–24h at 37 °C; read-out: MIC E. coli ATCC 25922
Readout name: MIC

CC(C)NC(=N)c1ccc2nc(-c3ccc(-c4ccc([N+](=O)[O-])cc4)o3)sc2c1
> 100 µM
N#C/C(=C\c1ccc(-c2ccc([N+](=O)[O-])cc2)o1)c1nc2ccccc2[nH]1
> 100 µM
CC(C)(O/N=C(\C(=O)N[C@@H]1C(=O)N2C(C(=O)[O-])=C(C[n+]3ccccc3)CS[C@H]12)c1csc(N)n1)C(=O)O [Ceftazidime, reference compound]
< 0.125 µM
CC1(C)S[C@@H]2[C@H](NC(=O)[C@H](N)c3ccccc3)C(=O)N2[C@H]1C(=O)O [Ampicillin, reference compound]
4 µM
Cl.Clc1ccc(-c2ccc(-c3nc4ccc(C5=NCCN5)cc4s3)o2)cc1
> 100 µM
N#Cc1ccc2nc(-c3ccc(-c4ccc([N+](=O)[O-])cc4)o3)sc2c1
> 100 µM
C[C@@H](c1ncncc1F)[C@](O)(Cn1cncn1)c1ccc(F)cc1F [Voriconazole, reference compound]
> 64 µM
N#Cc1ccc2[nH]c(-c3ccc(-c4ccc([N+](=O)[O-])cc4)o3)nc2c1
> 100 µM

Noted for Cl.O=[N+]([O-])c1ccc(-c2ccc(-c3nc4ccc(C5=NCCN5)cc4s3)o2)cc1 : its MIC reads > 100 µM

Noted for CC(C)NC(=N)c1ccc2nc(-c3ccc(-c4ccc(Cl)cc4)o3)sc2c1 : its MIC reads > 100 µM

Noted for N#Cc1ccc2[nH]c(-c3ccc(-c4ccc(Cl)cc4)o3)nc2c1 : its MIC reads > 100 µM

====

Tested on: NCI-H358
Assay: BrdU proliferation assay, 2D cell culture
Type: cell-based, human
Conditions: NCI-H358, 2D, n = 2, read-out: Proliferation Assay IC50 ± SD
Description: MTS assay gives us information about the number of living cells, in this case, metabolically active cells, whereas the BrdU proliferation assay gives a measure of the cell population in active division phase. Both assays were performed in 2D and 3D assay formats. […] Cells were grown in 96-well cell star polystyrene plates. […] After 0.5–2 h of cell incubation with MTS in 2D cell culture, the plates were read using PE EnVision absorbance at 490 nm. […]
As shown below, each of these compounds has a reported IC50 value.

N#CC(=Cc1ccc(-c2ccc([N+](=O)[O-])cc2)o1)c1nc2cc([N+](=O)[O-])ccc2[nH]1
> 50 µM

Lab note: next compound to report on.
Noted for N#CC(=Cc1ccc(-c2ccc(Cl)cc2)o1)c1nc2cc([N+](=O)[O-])ccc2[nH]1 : its IC50 reads > 50 µM
